System: PPARg DBDmut IVT, anti-PPARg (DBD mutation: PPARg1 K132A/R137A, NR concentration 270 nM)
Measurement Description: PBM binding z-score (relative to random genomic background probes); higher = stronger binding; sequences stand for … in GC…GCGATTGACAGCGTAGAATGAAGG
Outcome Measure: PBM binding z-score
Please give only the number in your answer, with no unit.

Asked: Need PBM binding z-score, item GGACCGAGGGCAAAGTTGATAGCATCTGTCGACG
Given back: -0.551

Asked: Need PBM binding z-score, item GATACAGGGTCAGCTAGAGGCCAGAGTCTGGAAA
Given back: -0.829

====

System: RARb:RXRa (NR concentration 270 nM, RXRa partner concentration 90 nM)
Measurement Description: PBM binding z-score (relative to random genomic background probes); higher = stronger binding; sequences stand for … in GC…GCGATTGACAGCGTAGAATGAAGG
Outcome Measure: PBM binding z-score
Please give only the number in your answer, with no unit.

ATATGTAGGTTAGCTGGTGTCATTCAGACTAGGC: 0.987
ACTAGTTGGTCGGCTGAGGTCACACACAATTCGG: 3.08
CATTACGGGTCACGAGGTTATAGCACGACGAGCG: 4.68
GCTGCTAGGTCAGCTGATGGTCAGCTAAAGCTCG: 3.57

Asked: Need PBM binding z-score, item GATACAGGGGCAGCTAGAGGCCAGAGTATGGAAA
Given back: 1.57

Asked: Need PBM binding z-score, item CCTGCTAGGTCATTGTCAGCTAATCTACAGTATG
Given back: 3.55

Asked: Need PBM binding z-score, item CCTTACGAGTCACGAGGTTATAGCACGACGAGCG
Given back: 0.971

Asked: Need PBM binding z-score, item TAGCCTAGTTCATGGGCCAGTATACCACGCGAAC
Given back: 1.37

Asked: Need PBM binding z-score, item GCTAGTTAGTCAGTAAAAGGTCACACACCGGTCG
Given back: 3.96

Asked: Need PBM binding z-score, item ACAGACGGGTGAGTGAAGGTAACTCAGCTGGACG
Given back: 0.0932

====

Test system: PXR homodimer (NR concentration 270 nM)
Measurement Description: PBM binding z-score (relative to random genomic background probes); higher = stronger binding; sequences stand for … in GC…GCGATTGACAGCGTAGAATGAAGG
Overview of recorded PBM binding z-score for various sequences
Please give only the number in your answer, with no unit.

Example entries and their recorded answers appear below.
CGTCCGAGGTCAGCAGGTCAGTGAAAGCGACGTG: 0.531
ACTATTAGTTGACTTAGGGCAACCGGTACGACGC: 0.564
CGTTCAAGGTCAGAGAGGTCAGTGAATGCCGAGT: 12.2
TCTGCTAGGTCAAAGATGGTCAGCTAATCTGCTA: -0.802

Asked: Need PBM binding z-score, item ATCTCTAGGTAAAGATAGTTCAGTGCATGCAAAT
Given back: 1.29

====

Test system: VDR:RXRa (NR concentration 270 nM, RXRa partner concentration 90 nM)
Measurement Description: PBM binding z-score (relative to random genomic background probes); higher = stronger binding; sequences stand for … in GC…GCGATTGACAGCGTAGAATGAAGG
Outcome Measure: PBM binding z-score
Please give only the number in your answer, with no unit.

Example entries and their recorded answers appear below.
ATATGTAGGTTATCGGGTCGTTCAGTTTGCGCAT: 3.89
CCTACTGGGCCATTCAGAAGTCATTGATCATATG: -0.356

Asked: Need PBM binding z-score, item GCATATAGGTAATACAAGCTGAAAGTCCGATTGT
Given back: -0.105

Asked: Need PBM binding z-score, item AGAACGAGGGCAATGAGGTGATAGCACGGGTGGC
Given back: 3.78

Asked: Need PBM binding z-score, item ACATGTAGGTTATCGGGTCATTCAGTTTGCGCAT
Given back: 5.39

Asked: Need PBM binding z-score, item TCAGATAGGTAAATGCTAGGTGAAAGTCCGATCT
Given back: 0.407

Asked: Need PBM binding z-score, item CCTACTGGGCCACGAAATGTCATTGATTCAGTGA
Given back: -0.452

Asked: Need PBM binding z-score, item GATACATGGTCAAGGCCAGAGTACGCGTATTGAT
Given back: -0.256

Asked: Need PBM binding z-score, item TCGCCTAGGTCATTCAGGGGCCAGTATAGAAAGC
Given back: 3.06

Asked: Need PBM binding z-score, item TTACCAGGGTGAGCTGAGGTCGTTGATCCAACTC
Given back: 4.58

====

Overview of recorded PBM binding z-score for various sequences
Tested on: PPARg:RXRa 270nM:90nM, anti-RXR (NR concentration 270 nM, RXRa partner concentration 90 nM)
Measurement Description: PBM binding z-score (relative to random genomic background probes); higher = stronger binding; sequences stand for … in GC…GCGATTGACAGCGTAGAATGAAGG
Please give only the number in your answer, with no unit.

AGACCGAGGGCACGCTGAGTTGATAGCAGAGTAG: 0.775
TCGAGTAGGTTGGTCGGGGCATTCAGCCAACATA: 0.116
CCTAGTTGGTCAACGTCACACACGCTATAGGTAC: 0.719
CCGACTGGGCCAAGGTCATTGATCAGTCAAAGCA: 3
TAGCCTAGGTCAGCTCGGGCCAGTATACGCTATA: 0.958

Asked: Need PBM binding z-score, item GCTCCGAGGACAAGGTCAGAGCTTTGTCCGTAGA
Given back: 1.15

Asked: Need PBM binding z-score, item GCATTTAGGTAATACAAGGTGAAAGTCCGATTGT
Given back: 1.03

Asked: Need PBM binding z-score, item TCGAGTAGGTTACCTATGGGGCATTCAGCTTTCT
Given back: 1.01

Asked: Need PBM binding z-score, item CCTTACGGCTCACTGACAGGTTATAGCATTTGGA
Given back: -0.0307

Asked: Need PBM binding z-score, item AGTCAAAGTACATCTAGGTAACGTAAGATATGCT
Given back: 0.631

Asked: Need PBM binding z-score, item CCTACTAGTTGACCATAAGGGCAACCGAAGCTCG
Given back: 0.311

Asked: Need PBM binding z-score, item CCTTACGGGTCATTCCAGGTTATAGCATCGGAGT
Given back: 4.21

Asked: Need PBM binding z-score, item TCTAGTTGGTCACGGAGCTCACACACGACGGGTA
Given back: 1.56

Asked: Need PBM binding z-score, item ATCGAAAGGTCGAAGGTAAGTATACCCACCCGAA
Given back: 3.88

====

Test system: PXR homodimer (NR concentration 270 nM)
Measurement Description: PBM binding z-score (relative to random genomic background probes); higher = stronger binding; sequences stand for … in GC…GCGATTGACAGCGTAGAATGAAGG
Overview of recorded PBM binding z-score for various sequences
Please give only the number in your answer, with no unit.

TGAATGAGGTTAAAGATCAGAGAACGTGGCGTCG: 0.0576
TAGCCTAGGTCATGGGTCAGTATACCACGCGAAC: 0.237
TCTAGTTGGTCACGTAGGTCACACACGACGGGTA: 0.538

Asked: Under PXR homodimer (NR concentration 270 nM): PBM binding z-score value of GAAACAGGGTCAGCTAGAGGCCAGAGTATGGAAA ?
Given back: -0.0723

====

System: PXR:RXRa (NR concentration 270 nM, RXRa partner concentration 90 nM)
Measurement Description: PBM binding z-score (relative to random genomic background probes); higher = stronger binding; sequences stand for … in GC…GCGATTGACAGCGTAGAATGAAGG
Overview of recorded PBM binding z-score for various sequences
Please give only the number in your answer, with no unit.

Example entries and their recorded answers appear below.
TCTCGGAGGACACGAAGGTCAGATCTTTCCAGAG: 2.44
AGTCAAAGTTCATCTATGTAACGTAAGATATGCT: 5.09
CCTCGGAGGAGAGAAGGTCAGAGCTGTCCGCTTT: 1.24
ATCTCTAGGTAACAAGTTCAGAGAAAGAGAGGAC: 1.59
ACTAGCAGGCCAAGTGTCACTCAAGATTAGTCCG: -0.239
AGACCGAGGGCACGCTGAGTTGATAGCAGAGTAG: 1.52
ACTAGCAGGCCAAGGGGCACTCAAGATTAGTCCG: -0.175
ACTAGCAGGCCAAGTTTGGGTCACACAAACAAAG: 1.07

Asked: Need PBM binding z-score, item ATCTCTAGTTAAAAGTTCAGTGAATCCCGAGGAT
Given back: 1.9

Asked: Need PBM binding z-score, item GCTAGCAGGACATTTGGGTCACTCAATGACGGGC
Given back: 0.607

Asked: Need PBM binding z-score, item CCGTCTGGGGCAAGGTTACCATAACGCACAGCCA
Given back: 0.036

Reference for the values: the supplement of paper PMC6555819
